# System: biotinyl-Trp-oxazolone
# Experiment description: self-aminoacylation, catalytic enhancement (BWO) (fold over background); higher = more active; k-Seq, kA / k0A0; sequences stand for … in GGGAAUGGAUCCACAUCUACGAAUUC…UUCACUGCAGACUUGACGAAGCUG
This sample holds only a part of the variants without activity.
Recorded self-aminoacylation, one value per entry.
Measurement name: self-aminoacylation

# Entry sequence, Measurement name, Result
data = [
    ("CUACCUCAAACAAUCGCUCUG [Fam1A.1 aminoacylation ribozyme variant]", "self-aminoacylation", 1.83),
    ("CUACUUCAAACAUUCGGUCUA [Fam1A.1 aminoacylation ribozyme variant]", "self-aminoacylation", 0.89),
    ("AUUCACCUAGGUCGUCGAGUG [Fam2.2 aminoacylation ribozyme variant]", "self-aminoacylation", 0.529),
    ("AAGUUUCCUAAUCGUCGCAAG [Fam3.1 aminoacylation ribozyme variant]", "self-aminoacylation", 0.618),
    ("AAGUCUGCAAAUAGUCGCAAG [Fam3.1 aminoacylation ribozyme variant]", "self-aminoacylation", 1.22),
    ("AUUCACCUAGGUCUUUGGGUG [Fam2.2 aminoacylation ribozyme variant]", "self-aminoacylation", 6.83),
    ("CUUCUUCAAACAAUCGGUGUG [Fam1A.1 aminoacylation ribozyme variant]", "self-aminoacylation", 2.46),
    ("CUACUUCAAACAAUGCGUCUG [Fam1A.1 aminoacylation ribozyme variant]", "self-aminoacylation", 0.738),
    ("AUUCACCUAGGUCAUGGGGUU [Fam2.2 aminoacylation ribozyme variant]", "self-aminoacylation", 1.51),
]
